# assay.comment: in vivo
# measurement.context: male, Sprague-Dawley, rat, iv, 1 mg/kg

| compound | quantity.unit | Tmax |
| --- | --- | --- |
| O=C(CC1CCC(F)(F)CC1)NCC(=O)N[C@H](Cc1ccccc1)C(=O)C(=O)NCc1ccccn1 | min | 4.8 |
| C[C@@H](NC(=O)C1CCC(F)(F)C1)C(=O)N[C@H](Cc1ccccc1)C(=O)C(=O)NCc1nccs1 (stereo partly shown) | min | 4.8 |
| C[C@@H](NC(=O)C1CCC(F)(F)CC1)C(=O)N[C@H](Cc1ccccc1)C(=O)C(=O)NCc1ccccn1 | min | 4.8 |
| COC[C@@H](NC(=O)CC1CC(F)(F)C1)C(=O)N[C@H](Cc1ccccc1)C(=O)C(=O)NCc1nccs1 | min | 4.8 |

Reference source: patent US20250064789A1
